Biological target: Bombyx mori EcR (VP16 fusion, CVBE switch construct) (Bombyx mori)
Sequence (P49881 86-606): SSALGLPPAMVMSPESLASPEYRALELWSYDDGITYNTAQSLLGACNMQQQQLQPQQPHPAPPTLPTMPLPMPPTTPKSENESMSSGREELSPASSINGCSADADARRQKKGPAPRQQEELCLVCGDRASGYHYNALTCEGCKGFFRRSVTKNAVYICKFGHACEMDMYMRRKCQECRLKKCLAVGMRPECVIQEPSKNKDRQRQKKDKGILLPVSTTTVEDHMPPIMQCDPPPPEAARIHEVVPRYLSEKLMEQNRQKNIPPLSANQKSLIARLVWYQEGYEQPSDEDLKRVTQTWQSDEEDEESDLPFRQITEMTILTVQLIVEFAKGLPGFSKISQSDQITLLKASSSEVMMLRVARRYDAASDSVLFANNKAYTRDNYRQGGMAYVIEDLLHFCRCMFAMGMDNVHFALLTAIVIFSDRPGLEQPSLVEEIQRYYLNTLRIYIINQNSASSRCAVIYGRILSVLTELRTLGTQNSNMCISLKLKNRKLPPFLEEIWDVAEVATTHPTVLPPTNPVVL
Sequence (P19793 whole entry partner, the tested form may be a part): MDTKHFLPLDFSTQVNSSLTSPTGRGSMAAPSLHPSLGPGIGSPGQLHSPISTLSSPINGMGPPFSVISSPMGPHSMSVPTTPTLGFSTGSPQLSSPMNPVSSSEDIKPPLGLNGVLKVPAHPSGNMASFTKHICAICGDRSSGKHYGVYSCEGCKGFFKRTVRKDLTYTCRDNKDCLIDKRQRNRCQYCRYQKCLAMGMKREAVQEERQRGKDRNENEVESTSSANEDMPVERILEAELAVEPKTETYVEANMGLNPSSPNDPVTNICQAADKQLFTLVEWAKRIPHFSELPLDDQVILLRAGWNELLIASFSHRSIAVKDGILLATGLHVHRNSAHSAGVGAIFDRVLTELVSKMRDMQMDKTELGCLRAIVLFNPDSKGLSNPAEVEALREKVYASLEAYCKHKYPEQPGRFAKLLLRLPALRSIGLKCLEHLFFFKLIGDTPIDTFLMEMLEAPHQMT
Experiment: Z3 Assay (HEK-293 cells with CVBE and 6XEcRE LacZ, β-galactosidase reporter)
Conditions: 3.3 uM ligand; ligand treated / DMSO treated cells; average of two wells
# class assignment by measured Fold Induction, Z3 Assay, 3.3 uM: bottom range (below 500), center range (500 to below 900), top range (900 or more)

Using the reported Fold Induction, Z3 Assay, 3.3 uM, which band applies to COc1cccc(C(=O)NN(C(=O)c2cc(C)ccc2[N+](=O)[O-])C(C)(C)C)c1C [RG-100569] ? center range

Using the reported Fold Induction, Z3 Assay, 3.3 uM, which band applies to COCc1c(OC)cccc1C(=O)NN(C(=O)c1cc(Cl)cc(Cl)c1)C(C)(C)C [RG-115306] ? bottom range

Using the reported Fold Induction, Z3 Assay, 3.3 uM, which band applies to CCc1ccc(C(=O)NN(C(=O)c2cc(OC)c(C)c(OC)c2)C(C)(C)C)c(F)c1 [RG-115077] ? bottom range

Using the reported Fold Induction, Z3 Assay, 3.3 uM, which band applies to C=Cc1c(OC)cccc1C(=O)NN(C(=O)c1cc(F)c(Cl)cc1Cl)C(C)(C)C [RG-115534] ? bottom range

Using the reported Fold Induction, Z3 Assay, 3.3 uM, which band applies to Cc1cc(C)cc(C(=O)N(NC(=O)c2ccc3c(c2)CCCC3)C(C)(C)C)c1 [RG-101887] ? top range

Using the reported Fold Induction, Z3 Assay, 3.3 uM, which band applies to Cc1ccc([N+](=O)[O-])c(C(=O)N(NC(=O)c2ccc3c(c2C)CCCO3)C(C)(C)C)c1 [RG-115664] ? bottom range

Using the reported Fold Induction, Z3 Assay, 3.3 uM, which band applies to CCc1c(OC)cccc1C(=O)NN(C(=O)c1cccc(Br)c1)C(C)(C)C [RG-115038] ? center range

Using the reported Fold Induction, Z3 Assay, 3.3 uM, which band applies to Cc1cc(C)cc(C(=O)N(NC(=O)c2ccc(CC#N)cc2)C(C)(C)C)c1 [RG-100875] ? top range

Using the reported Fold Induction, Z3 Assay, 3.3 uM, which band applies to Cc1cc(C)cc(C(=O)N(NC(=O)c2ccc3c(c2)OC(C)O3)C(C)(C)C)c1 (stereo not shown) [RG-101511] ? top range

Using the reported Fold Induction, Z3 Assay, 3.3 uM, which band applies to COc1cc(C(=O)N(NC(=O)c2ccc3c(c2C)OCCO3)C(C)(C)C)c([N+](=O)[O-])c(OC)c1C [RG-115609] ? bottom range

Using the reported Fold Induction, Z3 Assay, 3.3 uM, which band applies to CCc1c(OC)cccc1C(=O)NN(C(=O)c1cc(OC)c(C)c(OC)c1)C(CC)C(C)(C)C (stereo not shown) [RG-115831] ? top range

Using the reported Fold Induction, Z3 Assay, 3.3 uM, which band applies to COc1cccc(C(=O)NN(C(=O)c2cc(Cl)nc(Cl)c2)C(C)(C)C)c1C [RG-100394] ? top range

Using the reported Fold Induction, Z3 Assay, 3.3 uM, which band applies to CCc1ccc(C(=O)NN(C(=O)c2cc(C)nc(Cl)c2)C(C)(C)C)c(F)c1 [RG-115112] ? center range

Using the reported Fold Induction, Z3 Assay, 3.3 uM, which band applies to CCc1ccc(C(=O)NN(C(=O)c2cc(C)c(Cl)c(C)c2)C(C)(C)C)cc1 [RG-101862] ? center range

Using the reported Fold Induction, Z3 Assay, 3.3 uM, which band applies to COc1cc(C)ccc1C(=O)N(NC(=O)c1cccc(OC)c1C)C(C)(C)C [RG-100769] ? top range

Using the reported Fold Induction, Z3 Assay, 3.3 uM, which band applies to CCc1c(OC)cccc1C(=O)NN(C(=O)c1ccccc1S(=O)(=O)O)C(C)(C)C [RG-115555] ? bottom range

Using the reported Fold Induction, Z3 Assay, 3.3 uM, which band applies to C=Cc1c(OC)cccc1C(=O)NN(C(=O)c1cc(C)cc(C)c1)C(C)(C)C [RG-102021] ? bottom range

Using the reported Fold Induction, Z3 Assay, 3.3 uM, which band applies to COc1cccc(C(=O)NN(C(=O)c2cc(C)cc(Br)c2)C(C)(C)C)c1C [RG-101353] ? center range

Using the reported Fold Induction, Z3 Assay, 3.3 uM, which band applies to Cc1c(C(=O)NN(C(=O)c2cc(Cl)cc(Cl)c2)C(C)(C)C)cccc1N(C)C [RG-101316] ? top range

Using the reported Fold Induction, Z3 Assay, 3.3 uM, which band applies to CCCCC(CC)N(NC(=O)c1cccc(C)c1C)C(=O)c1ccccc1 (racemic) [RG-103361] ? bottom range

Using the reported Fold Induction, Z3 Assay, 3.3 uM, which band applies to CCc1ccc(C(=O)NN(C(=O)c2cc(F)ccc2[N+](=O)[O-])C(C)(C)C)c(F)c1 [RG-115086] ? bottom range

Using the reported Fold Induction, Z3 Assay, 3.3 uM, which band applies to COc1cc(C)cc(C(=O)N(NC(=O)c2cccc(OC)c2C)C(C)(C)C)c1 [RG-100767] ? center range

Using the reported Fold Induction, Z3 Assay, 3.3 uM, which band applies to CCc1ccc(C(=O)NN(C(=O)c2cc(C)cc(C)c2)C(C)(C)C)cc1CC [RG-101889] ? top range

Using the reported Fold Induction, Z3 Assay, 3.3 uM, which band applies to CCc1c(C(=O)NN(C(=O)c2ccccc2OC)C(C)(C)C)ccc2c1OCO2 [RG-100698] ? top range

Using the reported Fold Induction, Z3 Assay, 3.3 uM, which band applies to CCc1ccc(C(=O)NN(C(=O)c2ccccc2CC)C(C)(C)C)cc1 [RG-102592] ? center range

Using the reported Fold Induction, Z3 Assay, 3.3 uM, which band applies to COc1cccc(C(=O)NN(C(=O)c2cc(Cl)cc(Br)c2)C(C)(C)C)c1C [RG-101408] ? center range

Using the reported Fold Induction, Z3 Assay, 3.3 uM, which band applies to CC(C)(C)N(NC(=O)c1ccc(Br)cc1)C(=O)c1cc(Cl)cc(Cl)c1 [RG-101759] ? center range

Using the reported Fold Induction, Z3 Assay, 3.3 uM, which band applies to CCc1c(OC)cccc1C(=O)NN(C(=O)c1cccc(C#N)c1)C(C)(C)C [RG-115327] ? bottom range

Using the reported Fold Induction, Z3 Assay, 3.3 uM, which band applies to Cc1cc(C)cc(C(=O)N(NC(=O)c2cccc([N+](=O)[O-])c2C)C(C)(C)C)c1 [RG-100915] ? center range

Using the reported Fold Induction, Z3 Assay, 3.3 uM, which band applies to Cc1cc(C)cc(C(=O)N(NC(=O)c2ccc3c(c2)OC(C)CO3)C(C)(C)C)c1 (racemic) [RG-101509] ? top range

Using the reported Fold Induction, Z3 Assay, 3.3 uM, which band applies to Cc1cc(C)cc(C(=O)N(NC(=O)c2ccc3ncsc3c2)C(C)(C)C)c1 [RG-101312] ? center range

Using the reported Fold Induction, Z3 Assay, 3.3 uM, which band applies to CCc1ccc(C(=O)NN(C(=O)c2cc(F)c(F)c(F)c2)C(C)(C)C)c(F)c1 [RG-115259] ? bottom range

Using the reported Fold Induction, Z3 Assay, 3.3 uM, which band applies to Cc1cc(C)cc(C(=O)N(NC(=O)c2cccc(OC(C)C)c2C)C(C)(C)C)c1 [RG-101670] ? top range

Using the reported Fold Induction, Z3 Assay, 3.3 uM, which band applies to Cc1cc(C)cc(C(=O)N(NC(=O)c2ccc3c(c2)CCO3)C(C)(C)C)c1 [RG-101531] ? top range

###

Target: Bombyx mori EcR (VP16 fusion, CVBE switch construct) (Bombyx mori)
Experiment: Z3 Assay (HEK-293 cells with CVBE and 6XEcRE LacZ, β-galactosidase reporter)
Conditions: 3.3 uM ligand; ligand treated / DMSO treated cells; average of two wells
For each record, write down the corresponding Fold Induction, Z3 Assay, 3.3 uM.
# answer = number (no unit)

What value of measured Fold Induction, Z3 Assay, 3.3 uM is listed for CC(C)(C)N(NC(=O)c1ccc2c(c1)OC(F)(F)O2)C(=O)c1ccccc1[N+](=O)[O-] ? 7

What value of measured Fold Induction, Z3 Assay, 3.3 uM is listed for CCc1ccc(C(=O)NN(C(=O)c2ccccc2[N+](=O)[O-])C(C)(C)C)cc1 ? 1039

What value of measured Fold Induction, Z3 Assay, 3.3 uM is listed for Cc1ccc(F)c(C(=O)N(NC(=O)c2ccc3c(c2C)CCCO3)C(C)(C)C)c1 ? 173

What value of measured Fold Induction, Z3 Assay, 3.3 uM is listed for COc1cccc(C(=O)NN(C(=O)c2cc(C)cc(C)c2)C(C)(C)C)c1CF ? 3

What value of measured Fold Induction, Z3 Assay, 3.3 uM is listed for CCc1c(C(=O)NN(C(=O)c2cc(OC)c(C)c(OC)c2)C(C)(C)C)ccc2c1OCCO2 ? 412

What value of measured Fold Induction, Z3 Assay, 3.3 uM is listed for COc1ccc(C(=O)NN(C(=O)c2ccc(F)cc2Cl)C(C)(C)C)cc1 ? 632

What value of measured Fold Induction, Z3 Assay, 3.3 uM is listed for CCc1c(C(=O)NN(C(=O)c2cccc(C)c2)C(C)(C)C)ccc2c1OCCO2 ? 767

What value of measured Fold Induction, Z3 Assay, 3.3 uM is listed for Cc1c(C(=O)NN(C(=O)c2ccc(F)c(F)c2)C(C)(C)C)ccc2c1CCCO2 ? 164
